Below, each entry is listed with its recorded TGI.
Test system: MDA-N
Assay: NCI tumour cell line growth inhibition, 48 h
Answer in µM, number only, no unit symbol.

Look up TGI: CCOC(=O)n1c(=O)nc2c3c(ncn21)Oc1c(c(-c2ccccc2)nn1-c1ccccc1)C3c1ccc(Cl)cc1 (centres undefined)
3.01

Follow-up item: COc1cccc(O)c1-c1cc(=O)c2c(O)c(OC)c(OC)c(OC)c2o1
49.2

Follow-up item: COC(=O)[C@]1(CCC(C)=O)C(=O)C=CN([C@H](C)c2ccccc2)[C@@H]1Cc1ccc(OC)c(OCc2ccccc2)c1I
41.3

Follow-up item: COc1ccc2nc3cc(Cl)ccc3c(NCCCN(C)CCCNc3ccc4ncn5c6ccccc6c(=O)c3c45)c2c1
4.77

* * *

Below, each entry is listed with its recorded GI50.
System: SK-MEL-5 melanoma
Assay: NCI tumour cell line growth inhibition, 48 h

Look up GI50: COc1ccc2c(c1)c(-c1nc(-c3cn(C)c4ncccc34)cs1)cn2CCCCN1CCCCC1
1710 nM

Follow-up item: Fc1cnccc1-c1nc2ccc3[nH]ncc3c2c2c1CCCC2
2350 nM

Follow-up item: FC(F)(F)c1ccc(-c2cnc(-c3nn[nH]n3)nc2NC2CCCCCC2)cc1
> 10000 nM

---
Look up GI50: Cc1n[nH]c(C)c1-c1c(C)n[nH]c1C
1740 nM

Follow-up item: CNC(=S)N/N=C/CSC/C=N/NC(=S)NC
> 100000 nM

* * *

System: SNB-75 CNS
Assay: NCI tumour cell line growth inhibition, 48 h; in the data active = GI50 below about 0.43 µM; inactive = the rest
Parameter call: string, one of T = active, F = inactive

Below, 2 compounds whose answers are already recorded.
Fill in: this test's call for COc1ccc2c(c1)c(-c1nc(-c3cn(C)c4ncccc34)cs1)cn2CCCCN1CCCCC1 is ___
F

Follow-up item: CCn1nc(C#Cc2c(C)ccc3c(Nc4ccc(Cl)cc4)nccc23)c2c(N)ncnc21
F

---
Fill in: this test's call for CN(C)c1ccc(-c2cc(-c3cccc(NS(C)(=O)=O)c3)nc(N)c2C#N)cc1 is ___
T

* * *

Test system: MCF7 breast
Test: NCI tumour cell line growth inhibition, 48 h
Below, each entry is listed with its recorded TGI.

API: value(readout=TGI, system=MCF7 breast) for record Cc1nnc(NS(=O)(=O)c2ccc(N=Nc3c(O)c(C(=O)O)cc4ccccc34)cc2)s1
> 100 µM

---
API: value(readout=TGI, system=MCF7 breast) for record OC1(c2ccccc2)c2ccccc2N(c2ccccc2)c2ccc(Cl)cc21 (stereo not given)
0.894 µM

Follow-up item: O=c1oc2cc(O)ccc2c(O)c1C(c1ccc(/C=C/c2ccccc2)cc1)c1c(O)c2ccc(O)cc2oc1=O
> 100 µM

Follow-up item: COc1ccc(CC(COS(=O)(=O)c2ccc(C)cc2)NS(=O)(=O)c2ccc(C)cc2)cc1 (stereo not given)
> 69.7 µM

Follow-up item: O=C(O)CN1CCN2CCOCCN(CC1)CCN(CC(=O)O)CC2
> 100 µM

Follow-up item: Cc1cc(C)c(CNC(=O)c2cc(Cl)c3c(c2C)O[C@@](C)(C2CCC(N(C)C)CC2)O3)c(=O)[nH]1 (stereo not given in full)
> 100 µM

Follow-up item: CCOC(=O)n1c(=O)nc2c3c(ncn21)Oc1c(c(-c2ccccc2)nn1-c1ccccc1)C3c1ccc(Cl)cc1 (stereo not given)
2.9 µM

Follow-up item: O=C(O)c1ccc2nc(-c3ccccn3)c(-c3ccccn3)nc2c1
> 100 µM

Follow-up item: CCN(CC)CCN1C(=O)c2cccc3cc(N)cc(c23)C1=O
> 100 µM

Follow-up item: CC12CCC(C(=Nc3ccc([N+](=O)[O-])cc3)C1=O)C2(C)C (stereo not given)
> 100 µM

Follow-up item: N/C(=N\O)c1cn(C2OC(CO)C(O)C2O)c2ncnc(N)c12 (stereo not given)
1.07 µM

* * *

System: SF-539 CNS
Experiment: NCI tumour cell line growth inhibition, 48 h
RESULT TYPE: TGI (µM)
Answer in µM, number only, no unit symbol.

Take a look at these entries with their results.
API: value(readout=TGI, system=SF-539 CNS) for record Cc1ccccc1C1N=C2Oc3ccccc3C=C2C(=O)N1 (stereo unspecified)
6.88

Follow-up item: C=C1C(=O)O[C@H]2[C@@H]3O[C@@](C)(CC/C=C(\C)CCC[C@@H]2C)[C@H](O)C[C@@H]13
5.6

Follow-up item: CCCCCCCCCCCCOC(=N)N1CCOCC1
19.1

Follow-up item: CS(=O)c1cc(=O)c2ccccc2s1 (stereo unspecified)
18.4

Follow-up item: O=c1c2cc(F)ccc2sc2c(NCCCNCCO)nc3ccc(F)cc3c12
3.12

---
API: value(readout=TGI, system=SF-539 CNS) for record CCc1cccc(CC)c1NC1=CC(=O)C(=O)c2ccccc21
35.4

Follow-up item: CCC[CH2][Sn]1([CH2]CCC)[O]C(=O)c2cccnc2[S]1
8.39

Follow-up item: CC(=O)[O-].O=C([CH-]C(=O)c1ccccc1)c1ccccc1.O=C([CH-]C(=O)c1ccccc1)c1ccccc1.[Dy+3]
56.1

Follow-up item: CCN(CC)c1ccc(C=C2C(=O)NC(=S)NC2=O)cc1
6.15

* * *

Tested on: IGROV1 ovarian
Assay: NCI tumour cell line growth inhibition, 48 h
Below, each entry is listed with its recorded TGI.

Look up TGI: CSc1ccc(/C=C2\N=C(c3ccccc3)N(NC(=O)c3c(Cl)c(Cl)c(Cl)c(Cl)c3-c3nc4ccccc4[nH]3)C2=O)cc1
> 100 µM

Follow-up item: C/C(=N\NC(N)=O)C(CN1CCOCC1)C(c1ccccc1)c1c(O)c2ccccc2oc1=O (stereo unspecified)
> 100 µM

Follow-up item: COc1cnc2c(c1)C(=O)c1c-2n(CCCN2CCNCC2)c(=O)c2cc(F)ccc12
2.34 µM

Follow-up item: CN(C)c1ccc(-c2cc(-c3cccc(NS(C)(=O)=O)c3)nc(N)c2C#N)cc1
30.8 µM

Follow-up item: COc1ccc2c(c1)OCC1c3cc(OC)ccc3OC21 (stereo unspecified)
> 100 µM

Follow-up item: CS(=O)(=O)Sc1ccc(Cl)cc1
8 µM

Follow-up item: COc1ccc(Cc2c3cc(OC)c(OC)cc3cc[n+]2C)cc1
> 69.4 µM

Follow-up item: CC(C)OC(=O)OCOP(=O)(OCOC(=O)OC(C)C)C1CCCN(O)C1=O (stereo unspecified)
12.6 µM

---
Look up TGI: CCCCc1c2c([n+]([O-])c3c1CCCC3)CCCC2
> 100 µM

Follow-up item: Nc1nc(-c2ccccn2)c(-c2ccc3ncccc3n2)s1
> 25 µM

Follow-up item: O=C1N(c2ccccc2)C2(O)C(=O)c3ccccc3C2(O)N1c1ccccc1 (stereo unspecified)
> 100 µM

* * *

System: LOX IMVI melanoma
Assay: NCI tumour cell line growth inhibition, 48 h
Below, each entry is listed with its recorded TGI.

Look up TGI: CCOC(=O)c1c2ccccc2n2c(=O)n(-c3ccccc3)nnc12
> 100 µM

Follow-up item: CCOC(=O)c1sc(N)nc1N1CCCC1
> 100 µM

Follow-up item: O=C1N(c2ccccc2)C2(O)C(=O)c3ccccc3C2(O)N1c1ccccc1 (stereo not given)
> 100 µM

Follow-up item: CCOC(=O)n1c(=O)nc2c3c(ncn21)Oc1c(c(-c2ccccc2)nn1-c1ccccc1)C3c1ccc(Cl)cc1 (stereo not given)
2.78 µM

Follow-up item: NC(C(=O)O)C(O)c1cnc[nH]1 (stereo not given)
> 100 µM

Follow-up item: CC(C)OP(=O)(OC(C)C)C(=Nc1ccc(N=C(NNc2ccc([N+](=O)[O-])cc2)P(=O)(OC(C)C)OC(C)C)cc1)NNc1ccc([N+](=O)[O-])cc1
> 100 µM

Follow-up item: O=C(c1ccco1)c1c(C(F)(F)F)n([O-])c2cc(Cl)c(Cl)cc2[n+]1=O
0.52 µM

Follow-up item: N#Cc1cccc(C2SCc3nc4ccccc4n32)c1 (stereo not given)
> 100 µM

---
Look up TGI: FC(F)(F)c1ccc(-c2cnc(-c3nn[nH]n3)nc2NC2CCCCCC2)cc1
> 10 µM

Follow-up item: c1ccc2sc(C3(N4CCCCCC4)CCCCC3)cc2c1
43.4 µM

* * *

Below, each entry is listed with its recorded TGI.
System: SR leukemia
Assay: NCI tumour cell line growth inhibition, 48 h

Take a look at these entries with their results.
Look up TGI: CCOC(=O)c1sc(N)nc1N1CCCC1
> 100 µM

Follow-up item: N#CN1CCC2CC(=O)CCC2C1 (stereo not given)
> 100 µM

Follow-up item: C=C1C(=O)O[C@H]2[C@@H]3O[C@@](C)(CC/C=C(\C)CCC[C@@H]2C)[C@H](O)C[C@@H]13
> 100 µM

We now examine a further compound.
Look up TGI: N#CC1(C2CC(=O)N(c3ccccc3)C2=O)CCCCC1=O (stereo not given)
> 100 µM

Origin of measurements: PubChem BioAssay (NCI)
